Where do the numbers come from? From PubChem BioAssay (NCI).

The following molecules are shown together with reported TGI values.
System: U251 CNS
EXPERIMENT DESCRIPTION: NCI tumour cell line growth inhibition, 48 h

Known TGI results, listed for orientation:
MOLECULE: CC(=O)N1c2ccccc2C2=NN=C(N(C)C)SC21 (stereo not drawn)
TGI: 10.8 µM
--
MOLECULE: O=c1oc2ccccc2cc1-c1ccc([N+](=O)[O-])cc1
TGI: > 51.9 µM
--
MOLECULE: CN(C)CCN1N=Nc2cccc3cccc1c23
TGI: > 100 µM
--
MOLECULE: CCCOP1(=O)C=C(C)C(Cl)=C(C)C1 (stereo not drawn)
TGI: 59.3 µM
--
MOLECULE: O=S(=O)(O)c1cccc2ccc(O)c(N=Nc3ccc(S(=O)(=O)c4ccc(N=Nc5c(O)ccc6cccc(S(=O)(=O)O)c56)cc4)cc3)c12
TGI: > 100 µM

Query: Request the reported TGI associated with CC1CC/C(=C\c2ccc(Cl)cc2)C(=O)/C1=C\c1ccc(Cl)cc1 (stereo not drawn)
Result: > 100 µM

Query: Request the reported TGI associated with COc1cc(/C=C2\N=C(c3ccccc3)N(c3ccc(S(=O)(=O)Nc4nccs4)cc3)C2=O)ccc1O
Result: > 100 µM

Query: Request the reported TGI associated with c1ccc2c(c1)Sc1ccccc1N2CCCN1c2ccccc2Sc2ccccc21
Result: > 100 µM
